Experiment: protein stability index of a GFP-peptide fusion (GPS, HEK-293T) (PSI 1-6); higher = more stable;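 note: 24-mer peptide tiles fused after GFP, lentivirally expressed, FACS-sorted into six equal bins by GFP/DsRed ratio, decoded by Illumina sequencing, PSI is the read-weighted mean bin number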
Details: treatment: MLN4924 1 uM, 8 h; c terminus: a fixed tail appended
Class condition met: protein stability index at least 3. Class condition not met: protein stability index below 3.

Could you please find out whether LVTLNDMKAKQEALVKEREKQLAK [FAM50A] has protein stability index that meets 3 or exceeds it?
condition met

Hello, I need to know if ETLEASVGPRETEEKVRDLLWAKF [TOR1AIP2] has measured protein stability index not below 3. Thanks!
condition met

Quick check: does TIDMGPQLKVVERTRTATMLCAAS [PTPRD] have protein stability index greater than or equal to 3?
condition met

Kindly determine if protein stability index recorded for ILNPHVHVIGEDAACIAYIRLTQY [CAMK2B] is above or exactly 3.
condition not met

Decide: protein stability index of DSVKVALLETNPYLLALTIIVSIV [CLPTM1] >= 3?
condition not met

Determine whether measured protein stability index meets or exceeds 3 for GRCGPQAARAAGRDVAAEAVARSP [POMT2]
condition met

Quick check: does LAPEVIQSKGHGRAVDWWALGILI [PRKX] have protein stability index greater than or equal to 3?
condition not met

* * *

Exercise: state measured protein stability index for each of the sequences provided.
Assay: protein stability index of a GFP-peptide fusion (GPS, HEK-293T) (PSI 1-6); higher = more stable
Conditions: treatment: DMSO; c terminus: a fixed tail appended
Enter a number only.

Which protein stability index value is on record for KMAAFHGAGLKRYLLTVMAAAAKA [ADAMTS4] ?
2.43

So what does the record say about protein stability index for PCKQCKKKYVKGDVSLCRWHPKPY [FBXO34] ?
3.09

Sample AELNKEVSTNTAMIQTSKTEITEL [KRT13] — what was its protein stability index?
5.26

Field request: protein stability index | item: VLETKWELLQQLDLNNCKNNLEPI [KRT71]
3.2

Entry under review: KVIDDTNITRLQLETEIEALKEEL [KRT18] . Reported protein stability index?
4.2

protein stability index for RCCGAASYQDWQQNLYFNCSSPGV [TSPAN10] ?
2.37

Looking for the measured protein stability index of TIAQSLEHSWIKAIRRRNVRGEDS [DAPK3] , can you help?
3.64

# query: protein stability index of entry VNEMCPNITRIYNIGKSHQGLKLY [CPXM2]
2.52

Quick check: protein stability index of LIQPINHTTLQCLAARVIVNHRIY [FEM1C] ?
2.39

What does the record list as protein stability index for ELVLCVLVSIRNNRNLQKFSLFGD [FBXO33] ?
2.87

Report protein stability index for NGWTCLHWACKRNHGQVVSYLLKS [ANKRD40] please.
2.72

protein stability index for LESVNHCHLNGIVHRDLKPENLLL [CAMK2D] ?
2.85

Entry SEADASHCIQQILEAVLHCHQMGV [CAMK2B] : reported protein stability index = ?
2.48

Requested field: protein stability index. Item: LLPTLYEIHSKTTAYSRLNETQPI [RNF180]
1.96

Consider the sequence RSHHLEMVIQLLAIMCVSCICWSP [PTGFR] and give its measured protein stability index.
3.18

Any idea what its protein stability index is? The sequence is FEGRTPMHVACQHGQENIVRILLR [RIPK4]
2.95
